assayed.system: T1, human ANGPTL3 17-220 (human)
T1 chain: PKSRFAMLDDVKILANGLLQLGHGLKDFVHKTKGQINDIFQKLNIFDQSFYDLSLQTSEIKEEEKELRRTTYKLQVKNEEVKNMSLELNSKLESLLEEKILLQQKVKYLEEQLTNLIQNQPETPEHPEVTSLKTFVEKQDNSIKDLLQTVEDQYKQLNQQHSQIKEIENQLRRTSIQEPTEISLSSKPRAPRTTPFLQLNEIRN
assay.overview: SPR, pH 7.4, 37C
reported.property: Kd (nM)
# unit: nM | format: bare number

binder: tmAb1 (antibody, V domains shown) VH: EVQLLESGGGLVQPGGSLRLSCAASGFNFRSYWMTWVRQAPGKGLEWVSSISSHSTYIYYADSVKGRFTISRDNSKNTLYLQMNSLRAEDTATYYCAREGWYDNWFDPWGQGTLVTVSS VL: EIVLTQSPGTLSLSPGERATLSCRASQNIRSPYLAWYQQKPGQAPRLLIYGVSSRAAGIPDRFSGSGSGTDFTLTISRLEPEDFAVYYCQQYDDHPYTFGQGTKLEIK
numeric.value: 21

Please give measured Kd of the following entry: tmAb3 (antibody, V domains shown) VH: EVQLLESGGGLVQPGGSLRLSCAASGFNFESYWMTWVRQAPGKGLEWVSSISSHSTYIYYADSVKGRFTISRDNSKNTLYLQMNSLRAEDTATYYCAREGWYDNWFDPWGQGTLVTVSS VL: EIVLTQSPGTLSLSPGERATLSCRASQNIRSPYLAWYQQKPGQAPRLLIYGVSSRAAGIPDRFSGSGSGTDFTLTISRLEPEDFAVYYCQQYDDHPYTFGQGTKLEIK
18

Report Kd, nothing else, for this binder: tmAb2 (antibody, V domains shown) VH: EVQLLESGGGLVQPGGSLRLSCAASDFNFRSYWMTWVRQAPGKGLEWVSSISSHSTYIYYADSVKGRFTISRDNSKNTLYLQMNSLRAEDTATYYCAREGWYDNWFDPWGQGTLVTVSS VL: EIVLTQSPGTLSLSPGERATLSCRASQNIRSPYLAWYQQKPGQAPRLLIYGVSSRAAGIPDRFSGSGSGTDFTLTISRLEPEDFAVYYCQQYDDHPYTFGQGTKLEIK
43

State its Kd for this binder: tmAb4 (antibody, V domains shown) VH: EVQLLESGGGLVQPGGSLRLSCAASGFNFESYWMTWVRQAPGKGLEWVSSISSHSTYIYYADSVKGRFTISRDNSKNTLYLQMNSLRAEDTATYYCAREGWYDNWNDPWGQGTLVTVSS VL: EIVLTQSPGTLSLSPGERATLSCRASQNIRSPYLAWYQQKPGQAPRLLIYGVSSRAAGIPDRFSGSGSGTDFTLTISRLEPEDFAVYYCQQYDDHPYTFGQGTKLEIK
56
